This collection of values is drawn from the supplement of paper PMC7877785.

Assay Info: self-splicing fitness, log relative to wild type (ln ratio); higher = more splicing; Tetrahymena group I intron in knt gene, E. coli kanamycin selection, DiMSum; sequences stand for … in CUCUCU…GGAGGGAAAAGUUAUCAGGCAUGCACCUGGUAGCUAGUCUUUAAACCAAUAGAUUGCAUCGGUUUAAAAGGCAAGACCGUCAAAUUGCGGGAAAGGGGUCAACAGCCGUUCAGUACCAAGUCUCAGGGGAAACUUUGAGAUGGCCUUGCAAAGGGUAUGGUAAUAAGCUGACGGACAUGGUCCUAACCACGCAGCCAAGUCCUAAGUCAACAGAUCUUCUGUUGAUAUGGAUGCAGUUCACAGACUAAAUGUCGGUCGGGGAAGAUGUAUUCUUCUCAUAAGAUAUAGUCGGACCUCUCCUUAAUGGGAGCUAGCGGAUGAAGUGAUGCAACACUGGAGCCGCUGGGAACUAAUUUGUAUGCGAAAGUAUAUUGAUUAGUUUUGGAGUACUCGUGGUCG;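 note: selection with 25 µg/mL kanamycin versus none on LB agar overnight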
Condition: 30 °C
Reported self-splicing fitness (ln) by item:
Metric: self-splicing fitness (ln)

[[record]]
sequence_code = "GUUGAGCAAUAUUACGUAUC"
val = -2.91

[[record]]
sequence_code = "AUUAAGCAAUAUUACGUUCC"
val = -3.07

[[record]]
sequence_code = "AUUGAGCAAUAUUACGGAGG"
val = -2.97


====

Assay Info: self-splicing fitness, log relative to wild type (ln ratio); higher = more splicing; Tetrahymena group I intron in knt gene, E. coli kanamycin selection, DiMSum; sequences stand for … in CUCUCU…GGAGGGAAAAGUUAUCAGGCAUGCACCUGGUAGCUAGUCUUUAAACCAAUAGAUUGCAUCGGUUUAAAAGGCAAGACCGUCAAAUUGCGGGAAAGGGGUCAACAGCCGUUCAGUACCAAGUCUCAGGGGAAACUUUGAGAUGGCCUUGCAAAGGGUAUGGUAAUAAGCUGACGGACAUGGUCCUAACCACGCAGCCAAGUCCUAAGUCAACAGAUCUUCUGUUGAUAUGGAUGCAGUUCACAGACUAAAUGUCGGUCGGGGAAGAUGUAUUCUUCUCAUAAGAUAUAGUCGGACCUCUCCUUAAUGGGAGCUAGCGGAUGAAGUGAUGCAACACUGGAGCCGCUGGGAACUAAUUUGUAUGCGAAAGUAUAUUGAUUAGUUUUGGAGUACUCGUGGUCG
Condition: 37 °C
Please enter T where self-splicing fitness (ln) is greater than or equal to -1, and F where it is lower.

[[record]]
sequence_code = "CGUCAGCAAUAUUACGAGAG"
qualitative_label = "F"

[[record]]
sequence_code = "CCCCAGCAAUAUUACGAUGG"
qualitative_label = "F"

[[record]]
sequence_code = "UAGUAGCAAUAUUACGUUCU"
qualitative_label = "T"

[[record]]
sequence_code = "CCACAGCAAUAUUACGGUCA"
qualitative_label = "F"

[[record]]
sequence_code = "ACACAGCAAUAUUACGAAAU"
qualitative_label = "F"

[[record]]
sequence_code = "GUCAAGCAAUAUUACGUGCU"
qualitative_label = "F"

[[record]]
sequence_code = "GACAAGCAAUAUUACGUUCG"
qualitative_label = "F"

[[record]]
sequence_code = "AGAAAGCAAUAUUACGUAAU"
qualitative_label = "F"

[[record]]
sequence_code = "CCGUAGCAAUAUUACGGGCU"
qualitative_label = "F"

[[record]]
sequence_code = "GAGUAGCAAUAUUACGGGCA"
qualitative_label = "F"

[[record]]
sequence_code = "ACAAAGCAAUAUUACGUGAA"
qualitative_label = "F"

[[record]]
sequence_code = "GACGAGCAAUAUUACGUAGA"
qualitative_label = "F"

[[record]]
sequence_code = "CCCCAGCAAUAUUACGCGUA"
qualitative_label = "F"

[[record]]
sequence_code = "AGAGAGCAAUAUUACGUUCG"
qualitative_label = "F"

[[record]]
sequence_code = "AGGUAGCAAUAUUACGAGGC"
qualitative_label = "F"

[[record]]
sequence_code = "AGUGAGCAAUAUUACGGUGC"
qualitative_label = "F"

[[record]]
sequence_code = "GACUAGCAAUAUUACGUGUA"
qualitative_label = "T"

[[record]]
sequence_code = "CACUAGCAAUAUUACGAAAA"
qualitative_label = "F"

[[record]]
sequence_code = "GCGGAGCAAUAUUACGGUUG"
qualitative_label = "F"

[[record]]
sequence_code = "CGCGAGCAAUAUUACGGUUU"
qualitative_label = "F"

[[record]]
sequence_code = "CACCAGCAAUAUUACGAGGU"
qualitative_label = "F"

[[record]]
sequence_code = "UAGCAGCAAUAUUACGAACG"
qualitative_label = "T"

[[record]]
sequence_code = "GAAGAGCAAUAUUACGAUUG"
qualitative_label = "F"

[[record]]
sequence_code = "UCGAAGCAAUAUUACGCGUU"
qualitative_label = "F"

[[record]]
sequence_code = "AUAAAGCAAUAUUACGAACA"
qualitative_label = "T"

[[record]]
sequence_code = "CCAUAGCAAUAUUACGCCUU"
qualitative_label = "F"

[[record]]
sequence_code = "UUCGAGCAAUAUUACGGCCG"
qualitative_label = "F"

[[record]]
sequence_code = "GAGGAGCAAUAUUACGUGUU"
qualitative_label = "F"

[[record]]
sequence_code = "UUUCAGCAAUAUUACGCAGG"
qualitative_label = "F"

[[record]]
sequence_code = "GCUAAGCAAUAUUACGCCAU"
qualitative_label = "F"

[[record]]
sequence_code = "GUUGAGCAAUAUUACGUAGG"
qualitative_label = "F"

[[record]]
sequence_code = "GAUUAGCAAUAUUACGGGCC"
qualitative_label = "F"

[[record]]
sequence_code = "GUUUAGCAAUAUUACGACGA"
qualitative_label = "T"

[[record]]
sequence_code = "UGCGAGCAAUAUUACGCAGC"
qualitative_label = "F"

[[record]]
sequence_code = "GCGAAGCAAUAUUACGCACG"
qualitative_label = "F"

[[record]]
sequence_code = "GGAAAGCAAUAUUACGUUCG"
qualitative_label = "T"

[[record]]
sequence_code = "UAGCAGCAAUAUUACGCAAC"
qualitative_label = "F"

[[record]]
sequence_code = "ACAUAGCAAUAUUACGUCAG"
qualitative_label = "F"

[[record]]
sequence_code = "UGGCAGCAAUAUUACGGUGA"
qualitative_label = "T"

